- TGT: human NPFF2R (human, UniProt Q9Y5X5 1-522)
- Sequence (Q9Y5X5 whole entry): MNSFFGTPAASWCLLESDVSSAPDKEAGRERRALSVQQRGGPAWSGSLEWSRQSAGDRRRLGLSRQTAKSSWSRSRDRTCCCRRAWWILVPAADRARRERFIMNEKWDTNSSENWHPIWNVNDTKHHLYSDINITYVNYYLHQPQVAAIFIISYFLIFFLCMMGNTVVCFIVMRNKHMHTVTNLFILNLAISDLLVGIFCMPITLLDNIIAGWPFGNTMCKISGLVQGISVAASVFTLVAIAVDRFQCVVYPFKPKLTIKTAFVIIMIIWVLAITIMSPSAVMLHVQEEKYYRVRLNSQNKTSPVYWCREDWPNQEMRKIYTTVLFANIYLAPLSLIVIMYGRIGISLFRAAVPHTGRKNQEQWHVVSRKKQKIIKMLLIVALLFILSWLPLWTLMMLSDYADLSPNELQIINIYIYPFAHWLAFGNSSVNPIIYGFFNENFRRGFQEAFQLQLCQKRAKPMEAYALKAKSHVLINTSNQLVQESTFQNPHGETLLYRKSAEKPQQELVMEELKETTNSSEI
- EXPERIMENTAL_PROTOCOL: cell-based or functional assay
Bridges are numbered along the chain shown (N, C = ends). Where no end group is shown, it is not given here. [ ]: non-standard residue; d: D form. hArg = N=C(N)NCCCC[C@H](N)C(=O)O; Nle = CCCC[C@H](N)C(=O)O; L12 = not defined here; L1 = not defined here; L3 = not defined here; L4 = not defined here; L5 = not defined here; L6 = not defined here; L7 = not defined here; L8 = not defined here; L9 = not defined here
Answer each item with its documented NPFF2R EC50 10% FBS.

Previously resolved entries follow.
NPFF2R EC50 10% FBS reported for this binder SRAHQCS[Nle]ETRTCDINPAWYTG[hArg]GIRPVGRF-NH2 (linker 6-13 via L7; reading uncertain) [Conjugate 271] : 140 nM

Given item SRAHQCS[Nle]ETRTCDINPAWYTG[hArg]GIRPVGRF-NH2 (linker 6-13 via L8; reading uncertain) [Conjugate 267] , the value recorded as its NPFF2R EC50 10% FBS is ~10000 nM

The measured NPFF2R EC50 10% FBS associated with SRAHQCS[Nle]ETRTCDINPAWYTG[hArg]GIRPVGRF-NH2 (linker 6-13 via L3; reading uncertain) [Conjugate 255] reads 220 nM

response.value for SRAHQCS[Nle]ETRTCDINPAWYTG[hArg]GIRPVGRF-NH2 (linker 6-13 via L1; reading uncertain) [Conjugate 251] (field: NPFF2R EC50 10% FBS) = 1200 nM

Measured NPFF2R EC50 10% FBS, SRAHQCS[Nle]ETRTCDINPAWYTG[hArg]GIRPVGRF-NH2 (linker 6-13 via L9; reading uncertain) [Conjugate 268] : > 10000 nM

Would you mind listing NPFF2R EC50 10% FBS for each of the following binders?
1. SRAHQCS[Nle]ETRTCDINPAWYTG[hArg]GIRPVGRF-NH2 (linker 6-13 via L4; reading uncertain) [Conjugate 259]
2. SRAHQCS[Nle]ETRTCDINPAWYTG[hArg]GIRPVGRF-NH2 (linker 6-13 via L12; reading uncertain) [Conjugate 269]
3. SRAHQCS[Nle]ETRTCDINPAWYTG[hArg]GIRPVGRF-NH2 (linker 6-13 via L5; reading uncertain) [Conjugate 263]
4. SRAHQCS[Nle]ETRTCDINPAWYTG[hArg]GIRPVGRF-NH2 (linker 6-13 via L6; reading uncertain) [Conjugate 270]

(A)
> 10000 nM
~8000 nM
> 10000 nM
310 nM
